Molecular target: GPC3 (analyte of Tables 9 and 10) (UniProt P51654 25-559, limits assumed)
Assay: SPR (Biacore T200), purified antibody captured through Fc, GPC3 as analyte, 1:1 model
pKd: −log10 of the molar value.
value type: pKd

binder	endpoint value
9VH3VL2-hIgG1 (antibody, V domains shown, Humanized LAb19309, full-length human IgG1/kappa; also called 9VH3VL2-hIgG1 mAb) VH: QVQLVQSGAEVKKPGASVKVSCKASGYTFTDYEMHWVRQATGQGLEWMGGIDPETGNTAYSQKFKGRVTMTRNTSISTAYMELSSLRSEDTAVYYCARYYSFAYWGQGTLVTVSS VL: DIVMTQSPLSLPVTPGEPASISCRSSQTIVHSNGNTYLEWYLQKPGQSPQLLIYKVSNRFSGVPDRFSGSGSGTDFTLKISRVEAEDVGVYYCFQVSHVPYTFGGGTKLEIKR	9.17
